Here's a batch of compounds along with measured pIC50 for Cyclin-dependent kinase 5/CDK5 activator 1 (Homo sapiens).
On this scale, pIC50 is minus log10 of a concentration expressed in M (mol/L).

Worked examples follow.
- COMPOUND: "COc1ccc2c(c1)[nH]c1c3c(OC)cncc3cc(C(N)=O)c21"
  QUANTITATIVE_READOUT: 5.80
- COMPOUND: "COc1ccc2c(c1)[nH]c1c3ccncc3cc(C#N)c21"
  QUANTITATIVE_READOUT: 6.36
- COMPOUND: "COc1ccc2[nH]cc(-c3cc4cnccc4cc3NC(C)=O)c2c1"
  QUANTITATIVE_READOUT: 5.10
- COMPOUND: "N#Cc1cc2cnccc2c2[nH]c3ncccc3c12"
  QUANTITATIVE_READOUT: 6.11
- COMPOUND: "COc1ccc2c(c1)[nH]c1c3ccncc3cc(C(N)=O)c21"
  QUANTITATIVE_READOUT: 5.35
- COMPOUND: "COc1ccc2[nH]c3c4ccncc4cc(C#N)c3c2c1"
  QUANTITATIVE_READOUT: 6.10

Switching to the query record.
// query pIC50 value for entry N#Cc1cc2ccncc2c2[nH]c3ccccc3c12
5.22

----------
# MEASURED_ON: Dual specificity protein kinase CLK1 (Homo sapiens)
# Sequence (P49759 whole entry): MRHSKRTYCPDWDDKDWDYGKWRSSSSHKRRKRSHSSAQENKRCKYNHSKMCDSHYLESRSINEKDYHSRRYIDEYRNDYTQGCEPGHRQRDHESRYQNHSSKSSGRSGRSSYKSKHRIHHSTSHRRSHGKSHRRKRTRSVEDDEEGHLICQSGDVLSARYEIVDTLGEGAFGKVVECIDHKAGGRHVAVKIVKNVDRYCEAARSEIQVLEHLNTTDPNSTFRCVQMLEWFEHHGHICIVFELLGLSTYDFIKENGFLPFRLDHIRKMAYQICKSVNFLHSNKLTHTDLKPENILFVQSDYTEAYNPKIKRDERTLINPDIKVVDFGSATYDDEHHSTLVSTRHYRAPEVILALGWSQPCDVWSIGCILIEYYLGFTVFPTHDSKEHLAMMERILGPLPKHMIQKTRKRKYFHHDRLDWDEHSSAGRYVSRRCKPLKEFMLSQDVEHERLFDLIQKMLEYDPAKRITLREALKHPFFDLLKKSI
# ASSAY_REMARKS: Inhibition of GST-tagged human recombinant CLK1 expressed in Escherichia coli using RS peptide as substrate incubated for 30 mins in presence of [gamma-33 P] ATP by liquid scintillation counting analysis
pIC50: −log10 of the molar value.
Response key: Criterion met means pIC50 >= 6; Criterion not met means pIC50 < 6.

Here are 2 molecules together with their reported answers.
- MOLECULE: "N#Cc1cc2cnccc2c2[nH]c3ncccc3c12"
  LABEL_VALUE: "Criterion met"
- MOLECULE: "Nc1nc2ccccc2c2cc3cnccc3cc12"
  LABEL_VALUE: "Criterion not met"

Does N#Cc1cc2cnccc2c2[nH]c3ccc(F)cc3c12 have a reported pIC50 of at least 6?
Criterion met

----------
# MEASURED_ON: Cyclin-dependent kinase 5/CDK5 activator 1 (Homo sapiens)
# Sequence (Q00535 whole entry): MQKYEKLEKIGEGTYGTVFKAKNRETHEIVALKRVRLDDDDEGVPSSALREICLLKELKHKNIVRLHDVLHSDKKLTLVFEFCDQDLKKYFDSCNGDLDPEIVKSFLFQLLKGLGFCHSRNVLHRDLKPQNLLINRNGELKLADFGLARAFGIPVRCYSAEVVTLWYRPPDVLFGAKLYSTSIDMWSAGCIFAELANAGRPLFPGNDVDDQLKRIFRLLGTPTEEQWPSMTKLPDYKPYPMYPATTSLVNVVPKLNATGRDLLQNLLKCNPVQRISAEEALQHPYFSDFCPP
# Sequence (Q15078 whole entry, further chain): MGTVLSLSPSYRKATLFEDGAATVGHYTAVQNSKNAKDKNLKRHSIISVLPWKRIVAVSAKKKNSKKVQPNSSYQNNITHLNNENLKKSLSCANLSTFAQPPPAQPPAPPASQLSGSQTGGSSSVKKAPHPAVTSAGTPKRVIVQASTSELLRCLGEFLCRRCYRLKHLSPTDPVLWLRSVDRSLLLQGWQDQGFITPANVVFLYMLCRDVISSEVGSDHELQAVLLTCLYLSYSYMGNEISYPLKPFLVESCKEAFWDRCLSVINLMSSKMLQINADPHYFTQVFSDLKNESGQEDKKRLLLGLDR
IC50 reference

- COMPOUND: "N#C/C(=C\\c1cccnc1)c1c[nH]c2ccc(F)cc12"
  MEASURED_ON: "Cyclin-dependent kinase 5/CDK5 activator 1 (Homo sapiens)"
  IC50: "> 10 µM"
- COMPOUND: "N#C/C(=C/c1cccnc1)c1c[nH]c2ccccc12"
  MEASURED_ON: "Cyclin-dependent kinase 5/CDK5 activator 1 (Homo sapiens)"
  IC50: "> 10 µM"

// query IC50 value for entry COc1ccc2cc(-c3ccncc3)[nH]c2n1
> 10 µM

Could you do the same for Nc1nc2ccccc2c2cc3cnccc3cc12 , please?
> 10 µM

Could you do the same for COc1ccc2c(/C(C#N)=C/c3cccnc3)c[nH]c2c1 , please?
> 10 µM

Could you do the same for N#C/C(=C\c1ccccn1)c1c[nH]c2ccccc12 , please?
> 10 µM

Could you do the same for N#C/C(=C\c1ccncc1)c1c[nH]c2ccccc12 , please?
> 10 µM

----------
# MEASURED_ON: Dual specificity protein kinase CLK2 (Homo sapiens)
# Sequence (P49760 whole entry): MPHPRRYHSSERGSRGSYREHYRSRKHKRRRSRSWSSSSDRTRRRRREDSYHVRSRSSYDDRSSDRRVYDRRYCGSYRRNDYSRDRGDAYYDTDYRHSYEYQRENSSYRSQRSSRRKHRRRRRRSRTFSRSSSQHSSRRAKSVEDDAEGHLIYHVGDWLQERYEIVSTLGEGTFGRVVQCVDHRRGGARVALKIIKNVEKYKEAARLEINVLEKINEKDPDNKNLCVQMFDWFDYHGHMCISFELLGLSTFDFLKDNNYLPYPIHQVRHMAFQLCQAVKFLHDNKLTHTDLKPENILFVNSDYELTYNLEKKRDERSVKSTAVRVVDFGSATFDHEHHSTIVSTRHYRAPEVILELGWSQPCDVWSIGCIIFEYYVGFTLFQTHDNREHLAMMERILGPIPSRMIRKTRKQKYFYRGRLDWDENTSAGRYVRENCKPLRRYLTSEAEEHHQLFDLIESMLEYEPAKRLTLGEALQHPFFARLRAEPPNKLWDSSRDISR
# ASSAY_REMARKS: Inhibition of GST-tagged human recombinant CLK2 expressed in Escherichia coli using RS peptide as substrate incubated for 30 mins in presence of [gamma-33 P] ATP by liquid scintillation counting analysis
MEASURED_PARAMETER: pIC50
On this scale, pIC50 is minus log10 of a concentration expressed in M (mol/L).

Worked examples follow.
- COMPOUND: "COc1ccc2c(n1)[nH]c1c3ccncc3cc(C#N)c21"
  QUANTITATIVE_READOUT: 5.34
- COMPOUND: "COc1ccc2c(c1)[nH]c1c3ccncc3cc(CN)c21"
  QUANTITATIVE_READOUT: 5.80
- COMPOUND: "COc1ccc2[nH]c3c(=O)[nH]c(-c4cccnc4)c(C#N)c3c2c1"
  QUANTITATIVE_READOUT: 6.21

// query pIC50 value for entry COc1ccc2[nH]cc(-c3cc4cnccc4cc3NC(C)=O)c2c1
5.96

Could you do the same for COc1cccc2[nH]c3c4ccncc4cc(C#N)c3c12 , please?
5.40

Could you do the same for COc1cccc2c1[nH]c1c3ccncc3cc(C(N)=O)c21 , please?
5.46

Could you do the same for COc1cccc2c1[nH]c1c3ccncc3cc(C#N)c21 , please?
7.36

Could you do the same for N#Cc1cc2cnccc2c2[nH]c3ncccc3c12 , please?
6.40

Could you do the same for COc1ccc2c(-c3ccncc3)c[nH]c2n1 , please?
5.46

Could you do the same for N#C/C(=C\c1cccnc1)c1c[nH]c2ncccc12 , please?
5.34

Could you do the same for COc1ccc2[nH]c3c4ccncc4cc(C#N)c3c2c1 , please?
6.96

src = ChEMBL document CHEMBL3875174
